Target: GST-Bcl-xL (Homo sapiens, UniProt Q07817)
Sequence (Q07817 whole entry): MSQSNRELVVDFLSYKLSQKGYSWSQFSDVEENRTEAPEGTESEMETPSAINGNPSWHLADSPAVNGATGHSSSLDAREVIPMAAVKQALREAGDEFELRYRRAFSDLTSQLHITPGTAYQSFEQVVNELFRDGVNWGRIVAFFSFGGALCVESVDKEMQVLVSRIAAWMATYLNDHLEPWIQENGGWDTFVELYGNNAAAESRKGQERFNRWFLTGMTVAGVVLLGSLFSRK
Test: TR-FRET Bcl-xL binding assay (competition with probe F-Bak)
Settings: in the presence of 1% human serum; read-out: Bcl-xL Binding Ki (nM, 1% HS)
Experimental: Tb-anti-GST antibody was purchased from Invitrogen (Catalog No. PV4216). For the assay, test compounds were serially diluted in DMSO starting at 50 μM (2× starting concentration; 10% DMSO) and 10 μL transferred into a 384-well plate. […] The samples were then mixed on a shaker for 1 minute and incubated for an additional 2 hours at room temperature. […] Dissociation constants (Ki) were determined using Wang's equation (Wang, 1995, FEBS Lett. 360:111-114). […]
Consider the following compounds; for each one, report its log10 Ki.
Transform log10 | Measure Ki | Unit nM

Data request, read-out log10 Ki, for Cc1c(-c2ccc(N3CCc4ccc(F)c(C(=O)Nc5nc6ccccc6s5)c4C3)nc2C(=O)O)cnn1CC12CC3(C)CC(C)(C1)CC(OCCN)(C3)C2
1.23

Which log10 Ki reading was recorded for the compound Cc1c(-c2ccc(N3CCc4cccc(C(=O)Nc5nc6ccccc6s5)c4C3)nc2C(=O)O)cnn1CC12CC3(C)CC(C)(C1)CC(OCCN)(C3)C2 ?
-1.01

Quick check: log10 Ki of Cc1c(-c2ccc(N3CCc4c(F)ccc(C(=O)Nc5nc6ccccc6s5)c4C3)nc2C(=O)O)cnn1CC12CC3(C)CC(C)(C1)CC(OCCN)(C3)C2 ?
-0.21

Returns the measured log10 Ki for the input compound. Input: CNCCOC12CC3(C)CC(C)(CC(Cn4ncc(-c5ccc(N6CCc7cccc(C(=O)Nc8nc9ccccc9s8)c7C6)nc5C(=O)O)c4C)(C3)C1)C2
-0.41

Need log10 Ki of COCCNCCOC12CC3(C)CC(C)(CC(Cn4ncc(-c5ccc(N6CCc7cccc(C(=O)Nc8nc9ccccc9s8)c7C6)nc5C(=O)O)c4C)(C3)C1)C2 , thanks.
-1.11

Record request: log10 Ki value, item Cc1c(-c2ccc(N3CCc4cc(F)cc(C(=O)Nc5nc6ccccc6s5)c4C3)nc2C(=O)O)cnn1CC12CC3(C)CC(C)(C1)CC(OCCN)(C3)C2
-1.03

Entry CNCCOCCOCCOC12CC3(C)CC(C)(CC(Cn4ncc(-c5ccc(N6CCc7cccc(C(=O)Nc8nc9ccccc9s8)c7C6)nc5C(=O)O)c4C)(C3)C1)C2 : reported log10 Ki = ?
-0.29

Which log10 Ki is reported for this compound? Cc1c(-c2ccc(N3CCc4cccc(C(=O)Nc5nc6ccccc6s5)c4C3)nc2C(=O)O)cnn1CC12CC3(C)CC(C)(C1)CC(OCCOCCN)(C3)C2
-0.62

====

Test system: Molt-4 human acute lymphoblastic leukemia cells
Test: Molt-4 cell viability assay (CellTiter-Glo, 48 hours)
Assay type: cell-based
Conditions: 10% human serum, read-out: Molt-4 Viability EC50 (nM, 10% HS)
Description: The ability of exemplary Bcl-xL inhibitors can be determined in cell-based killing assays using a variety of cell lines and mouse tumor models. For example, their activity on cell viability can be assessed on a panel of cultured tumorigenic and non-tumorigenic cell lines, as well as primary mouse or human cell populations. Bcl-xL inhibitory activity of exemplary Bcl-xL inhibitors was confirmed in a cell viability assay with Molt-4 cells. […]
What EC50 was measured for each of the following?

// lookup EC50 | system=Molt-4 human acute lymphoblastic leukemia cells | key= Cc1c(-c2ccc(N3CCc4cc(F)cc(C(=O)Nc5nc6ccccc6s5)c4C3)nc2C(=O)O)cnn1CC12CC3(C)CC(C)(C1)CC(OCCN)(C3)C2
4 nM

Please state recorded EC50 (tested on Molt-4 human acute lymphoblastic leukemia cells) of CNCCOC12CC3(C)CC(C)(CC(Cn4ncc(-c5ccc(N6CCc7cccc(C(=O)Nc8nc9ccccc9s8)c7C6)nc5C(=O)O)c4C)(C3)C1)C2
7.8 nM

Test system Molt-4 human acute lymphoblastic leukemia cells; read-out EC50; what value for COCCNCCOC12CC3(C)CC(C)(CC(Cn4ncc(-c5ccc(N6CCc7cccc(C(=O)Nc8nc9ccccc9s8)c7C6)nc5C(=O)O)c4C)(C3)C1)C2 ?
1.85 nM
